The following compounds are listed with their measured pIC50 values.
Target Desc: Voltage-dependent L-type calcium channel subunit alpha-1C (Oryctolagus cuniculus)
Assay Overview: Blockade of calcium-evoked contractions in depolarized aortic strips
Assay type: functional, tissue-based, Aorta
Note on units: pIC50 is unitless, being -log10 of a concentration expressed in mol/L.

Before answering, review these 2 worked examples.
# Compound, pIC50
data = [
    ("CC1=NC(C)=C(C(=O)OCN2C(=O)c3ccccc3S2(=O)=O)C(c2cccc([N+](=O)[O-])c2)/C1=C(\\O)OCC1CCCO1 (stereo not drawn)", 7.60),
    ("CO/C(O)=C1\\C(C)=NC(C)=C(C(=O)OCN2C(=O)c3ccccc3S2(=O)=O)C1c1ccccc1[N+](=O)[O-] (stereo not drawn)", 7.51),
]

Now let's try a different one.
INPUT: Consider the compound shown here: CO/C(O)=C1\C(C)=NC(C)=C(C(=O)OCN2C(=O)c3ccccc3S2(=O)=O)C1c1cccc(Cl)c1Cl (stereo not drawn) What is its recorded pIC50?
OUTPUT: 8.29

* * *

Target Desc: Voltage-dependent L-type calcium channel subunit alpha-1C (Oryctolagus cuniculus, UniProt P15381)
Sequence (P15381 whole entry): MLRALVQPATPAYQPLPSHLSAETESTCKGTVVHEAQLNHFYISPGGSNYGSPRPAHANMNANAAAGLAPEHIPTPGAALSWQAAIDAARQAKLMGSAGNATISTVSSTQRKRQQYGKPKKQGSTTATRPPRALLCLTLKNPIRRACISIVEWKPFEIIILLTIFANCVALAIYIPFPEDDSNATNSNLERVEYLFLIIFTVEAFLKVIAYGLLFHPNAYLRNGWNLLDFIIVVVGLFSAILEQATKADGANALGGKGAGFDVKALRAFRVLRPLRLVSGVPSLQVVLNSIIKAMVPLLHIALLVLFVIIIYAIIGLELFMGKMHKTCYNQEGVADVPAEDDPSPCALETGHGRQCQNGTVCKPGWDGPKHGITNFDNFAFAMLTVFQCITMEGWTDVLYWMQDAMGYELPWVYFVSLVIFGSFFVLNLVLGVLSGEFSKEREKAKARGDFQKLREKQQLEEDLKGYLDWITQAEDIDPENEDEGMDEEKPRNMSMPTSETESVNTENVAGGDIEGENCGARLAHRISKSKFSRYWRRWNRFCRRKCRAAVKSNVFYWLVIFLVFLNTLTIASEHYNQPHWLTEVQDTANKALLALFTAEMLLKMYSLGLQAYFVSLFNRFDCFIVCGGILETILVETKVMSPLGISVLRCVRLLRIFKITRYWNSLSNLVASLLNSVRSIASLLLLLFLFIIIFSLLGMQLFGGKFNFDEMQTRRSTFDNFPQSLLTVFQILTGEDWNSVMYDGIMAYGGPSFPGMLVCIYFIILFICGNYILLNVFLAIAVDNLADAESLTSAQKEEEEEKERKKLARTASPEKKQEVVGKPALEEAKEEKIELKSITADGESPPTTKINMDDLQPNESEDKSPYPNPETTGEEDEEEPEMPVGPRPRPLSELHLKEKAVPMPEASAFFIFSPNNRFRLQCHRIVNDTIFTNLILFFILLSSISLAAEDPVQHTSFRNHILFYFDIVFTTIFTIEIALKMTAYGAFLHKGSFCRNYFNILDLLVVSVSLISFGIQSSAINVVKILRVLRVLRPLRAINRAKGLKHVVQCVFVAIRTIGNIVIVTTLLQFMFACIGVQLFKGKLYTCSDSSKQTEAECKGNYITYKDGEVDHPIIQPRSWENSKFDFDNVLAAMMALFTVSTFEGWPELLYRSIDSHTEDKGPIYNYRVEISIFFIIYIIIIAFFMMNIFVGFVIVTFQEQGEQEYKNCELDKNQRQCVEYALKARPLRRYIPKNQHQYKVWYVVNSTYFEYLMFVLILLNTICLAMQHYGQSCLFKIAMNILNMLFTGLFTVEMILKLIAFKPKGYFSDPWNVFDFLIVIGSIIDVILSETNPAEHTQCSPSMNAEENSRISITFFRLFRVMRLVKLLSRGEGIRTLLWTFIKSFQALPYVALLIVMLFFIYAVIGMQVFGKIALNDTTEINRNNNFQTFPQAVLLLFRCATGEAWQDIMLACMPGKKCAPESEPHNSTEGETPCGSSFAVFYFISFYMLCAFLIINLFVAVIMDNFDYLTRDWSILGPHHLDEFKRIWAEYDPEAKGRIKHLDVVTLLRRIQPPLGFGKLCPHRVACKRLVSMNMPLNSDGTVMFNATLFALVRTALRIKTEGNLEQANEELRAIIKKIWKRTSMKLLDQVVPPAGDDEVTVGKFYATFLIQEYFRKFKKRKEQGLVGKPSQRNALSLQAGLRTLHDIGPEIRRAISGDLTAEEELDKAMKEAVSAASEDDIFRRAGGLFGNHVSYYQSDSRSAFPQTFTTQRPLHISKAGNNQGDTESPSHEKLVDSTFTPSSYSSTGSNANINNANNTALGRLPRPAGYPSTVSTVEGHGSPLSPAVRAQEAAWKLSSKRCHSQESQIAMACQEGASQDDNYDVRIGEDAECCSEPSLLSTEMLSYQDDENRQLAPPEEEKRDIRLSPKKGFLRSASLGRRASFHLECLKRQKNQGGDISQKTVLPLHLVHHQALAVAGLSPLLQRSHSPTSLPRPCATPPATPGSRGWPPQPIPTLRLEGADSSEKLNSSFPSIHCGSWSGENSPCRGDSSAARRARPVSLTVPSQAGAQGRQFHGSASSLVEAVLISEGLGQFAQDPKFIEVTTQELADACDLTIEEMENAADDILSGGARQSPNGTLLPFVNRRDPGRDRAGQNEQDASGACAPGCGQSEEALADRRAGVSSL
Assay Overview: Selectivity index was measured as the IC50 needed to depress the heart beat divided by IC50 needed to block [Ca2+] contractions in rabbit aortic strips
Type: functional, tissue-based, Aorta
Observed Property: Selectivity index
Returns: the value as a bare number; no unit string appended.

# Compound, Selectivity index
records = [
    ("CC1=NC(C)=C(C(=O)OCCN2C(=O)c3ccccc3S2(=O)=O)C(c2cccc(Cl)c2Cl)/C1=C(\\O)OC(C)(C)C (configuration not stated)", 122),
    ("CC1=NC(C)=C(C(=O)OCCN2C(=O)c3ccccc3S2(=O)=O)C(c2cccc([N+](=O)[O-])c2)/C1=C(\\O)OC(C)(C)C (configuration not stated)", 72),
    ("COCCO/C(O)=C1\\C(C)=NC(C)=C(C(=O)OCCCN2C(=O)c3ccccc3S2(=O)=O)C1c1ccccc1C(F)(F)F (configuration not stated)", 16),
    ("CO/C(O)=C1\\C(C)=NC(C)=C(C(=O)OCCCN2C(=O)c3ccccc3S2(=O)=O)C1c1cccc(Cl)c1Cl (configuration not stated)", 686),
    ("CC1=NC(C)=C(C(=O)OCCN2C(=O)c3ccccc3S2(=O)=O)C(c2ccccc2C(F)(F)F)/C1=C(\\O)OC(C)C (configuration not stated)", 103),
]

INPUT: Consider the compound shown here: CCO/C(O)=C1\C(C)=NC(C)=C(C(=O)OCCCN2C(=O)c3ccccc3S2(=O)=O)C1c1cccc(Cl)c1Cl (configuration not stated) What is its recorded Selectivity index?
OUTPUT: 200

INPUT: Subsequent entry: CC1=NC(C)=C(C(=O)OCCN2C(=O)c3ccccc3S2(=O)=O)C(c2cccc(Cl)c2Cl)/C1=C(\O)OC(C)C (configuration not stated)
OUTPUT: 2744

* * *

Target Desc: Voltage-dependent L-type calcium channel subunit alpha-1C (Oryctolagus cuniculus, UniProt P15381)
Assay Overview: Blockade of calcium-evoked contractions in depolarized aortic strips
The following compounds are listed with their measured IC50 values.
Give your result in nM as a bare value.

Before answering, review these 3 worked examples.
# Compound, Readout Number
rows = [
    ("CC1=NC(C)=C(C(=O)OCN2C(=O)c3ccccc3S2(=O)=O)C(c2ccccc2[N+](=O)[O-])/C1=C(\\O)OCC1CCCCO1 (centres undefined)", 25.1),
    ("CC1=NC(C)=C(C(=O)OCN2C(=O)c3ccccc3S2(=O)=O)C(c2cccc([N+](=O)[O-])c2)/C1=C(\\O)OCC1CCCCO1 (centres undefined)", 13.3),
    ("CC1=NC(C)=C(C(=O)OCN2C(=O)c3ccccc3S2(=O)=O)C(c2ccccc2Cl)/C1=C(\\O)OCC1CCCO1 (centres undefined)", 10.1),
]

Now let's try a different one.
INPUT: Consider the compound shown here: CC1=NC(C)=C(C(=O)OCN2C(=O)c3ccccc3S2(=O)=O)C(c2ccccc2[N+](=O)[O-])/C1=C(\O)OCC1CCCO1 (centres undefined) What is its recorded IC50?
OUTPUT: 38
